src = PubChem BioAssay (EPA / NIEHS)

- assay_overview: CCTE_Simmons_MITO_max_resp_rate: CCTE's HepG2 Seahorse XF Respirometric Screening Assay at Maximal Respiratory State [uncoupled], Simmons Lab (AID 2284002)
- test_conditions: actives raise or lower the signal
Calls of active or inactive are those of the source. How the source made its calls: active means hit-call score of the fitted dose curve at least 0.9, where 1 is the maximum; inactive means score below 0.9.
Outcome codes: label 1 (active), label 0 (inactive)

[[record]]
compound = "CC(C)(C)c1cc(O)c(C(C)(C)C)cc1O"
assigned_label = "label 1"

[[record]]
compound = "COc1cc(S(=O)(=O)O)c(C)cc1N=Nc1c(O)ccc2cc(S(=O)(=O)O)ccc12"
assigned_label = "label 0"

[[record]]
compound = "C=CCOC(=O)c1ccccc1C(=O)OCC=C"
assigned_label = "label 0"

[[record]]
compound = "COc1ccc2c(c1)c(CC(=O)O)c(C)n2C(=O)c1ccc(Cl)cc1"
assigned_label = "label 0"

[[record]]
compound = "CCCCC(CC)COC(=O)CC(C(=O)OCC(CC)CCCC)S(=O)(=O)O (stereo unspecified)"
assigned_label = "label 1"

[[record]]
compound = "Cc1c(C(=O)O)c(O)cc2c1C(=O)c1c(O)c([C@@H]3O[C@H](CO)[C@@H](O)[C@H](O)[C@H]3O)c(O)c(O)c1C2=O"
assigned_label = "label 0"

